# measurement target: T1, Rb^P R741C (human, UniProt P06400 380-788, R741C)
# T1 construct: also called variant 68
# T1 sequence (looked up): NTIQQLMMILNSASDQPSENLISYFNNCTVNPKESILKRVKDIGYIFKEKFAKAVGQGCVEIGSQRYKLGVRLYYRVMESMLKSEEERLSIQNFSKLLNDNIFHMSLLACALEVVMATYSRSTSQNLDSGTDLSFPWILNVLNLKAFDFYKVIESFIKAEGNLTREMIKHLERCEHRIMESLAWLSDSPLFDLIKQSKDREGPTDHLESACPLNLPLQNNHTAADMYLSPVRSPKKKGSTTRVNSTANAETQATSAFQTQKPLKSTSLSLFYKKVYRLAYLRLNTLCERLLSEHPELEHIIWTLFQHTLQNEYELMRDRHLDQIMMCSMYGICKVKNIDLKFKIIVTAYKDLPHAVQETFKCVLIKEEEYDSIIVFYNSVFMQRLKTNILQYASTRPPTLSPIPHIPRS
# assay overview: fluorescence polarisation; 25 °C; unlabeled Rb^P titrated against 1.5 nM TMR-E2F1^TD or 7.5 nM TMR-E7^LxCxE; 25 mM Tris pH 8.0, 200 mM NaCl, 1 mM DTT, 0.1% Tween-20; 2 min incubation; quadratic fit; apparent Kd for the variants, Kd for WT
# test settings: both partners purified
No end group written: not given here. TMR = tetramethyl rhodamine dye

| binder | Kd [nM] |
| --- | --- |
| {TMR}-GEGIRDLFDCDFGDLTPLD (also called E2F^TD; source: synthetic peptide, bought: GenScript) [TMR-E2F1^TD, peptide of the E2F1 transactivation domain] | 23 |
| DLYCYEQLN (also: TMR label, position not given here, source: synthetic peptide, bought: GenScript) [TMR-E7^LxCxE, LxCxE peptide of the E7 oncoprotein from HPV] | 14 |

# credit: paper PMC11931385
